B1: Pistol ribozyme (parent)
chain: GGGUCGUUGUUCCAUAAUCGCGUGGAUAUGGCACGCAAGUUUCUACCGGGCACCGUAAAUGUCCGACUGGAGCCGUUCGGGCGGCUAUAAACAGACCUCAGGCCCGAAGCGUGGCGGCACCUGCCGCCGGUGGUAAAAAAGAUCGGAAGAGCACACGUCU

# Variants of: B1
# Protocol Details: aptazyme ON/OFF ratio, guanine; higher = stronger switching; co-transcriptional cleavage with and without guanine
Experimental Readout: aptazyme ON/OFF ratio
Would you mind answering with just the numeric figure?

Examples with their reported aptazyme ON/OFF ratio follow.
[
  {
    "Variant Code": "U7C U8G G9U U10C U11G C12A C13G",
    "Measured Result": 1.13
  },
  {
    "Variant Code": "U7G U10G U11C C12A C13G",
    "Measured Result": 1.12
  },
  {
    "Variant Code": "U7G U8A G9A U10C U11A C13G",
    "Measured Result": 1.07
  },
  {
    "Variant Code": "U7G U8C G9C U10C C12A",
    "Measured Result": 1.13
  },
  {
    "Variant Code": "U7C U8A U11G C13A",
    "Measured Result": 1.14
  },
  {
    "Variant Code": "U7G G9U U10G U11A C13U",
    "Measured Result": 1.17
  }
]

aptazyme ON/OFF ratio measured on U7C U8C U11A C12A C13A = 1.2

aptazyme ON/OFF ratio measured on U8A G9A U10G C12A = 1.2

aptazyme ON/OFF ratio measured on U10G U11A C12G C13U = 1.33

aptazyme ON/OFF ratio measured on U7C U10A U11C C12A = 1.12

aptazyme ON/OFF ratio measured on G9A U10A U11G C12G C13A = 1.42

aptazyme ON/OFF ratio measured on U7C G9U U11C C12U C13G = 1.05

aptazyme ON/OFF ratio measured on U7C U8G G9U U10A U11G = 1.22

aptazyme ON/OFF ratio measured on G9C U10A U11A C12G C13A = 1.31
